Each recorded value in this set is attributed to ChEMBL document CHEMBL3244194.

Experiment: Acute toxicity in iv dosed mouse
Details: in vivo
valueKind: LD50 (mg/kg)
# output: bare number, implied unit mg/kg

CC(C)(C)NCC(O)c1sc(Cl)cc1Cl (racemic) : 30

Pending compound:
Consider the compound CC(C)NCC(O)c1sc(Cl)cc1Cl (racemic) and give its measured LD50.
35

---

The following compounds are shown together with reported inhibition in vivo at 4 mg/kg values.
System: Rattus norvegicus
Test: In vivo inhibition of beta-adrenoceptor in Wistar rat assessed as inhibition of isoproterenol-induced tachycardia at 4 mg/kg, iv relative to control
Format: functional
Express your answer in %, writing the number without its unit.

Can you share its inhibition in vivo at 4 mg/kg? I mean this compound: CC(C)NCC(O)c1sc(Br)c(Br)c1Br (racemic)
75

Bench note: what inhibition in vivo at 4 mg/kg did CC(C)NCC(O)c1sc(Cl)c(Cl)c1Cl (racemic) show?
90

Given the entry CC(C)(C)NCC(O)c1cc(Br)c(Br)s1 (racemic) , report its measured inhibition in vivo at 4 mg/kg.
92

For the compound CC(C)NCC(O)c1sccc1Br (racemic) , what inhibition in vivo at 4 mg/kg is on record?
0

Query (compound): CC(C)(C)NCC(O)c1sc(Br)cc1Br (racemic) ; field requested: inhibition in vivo at 4 mg/kg
78

For the compound shown here, CC(C)NCC(O)COc1cccc2ccccc12 (configuration not stated) , give the reported inhibition in vivo at 4 mg/kg.
95

What does the data say about its inhibition in vivo at 4 mg/kg? Entry: CC(C)(C)NCC(O)c1cc(Br)cs1 (racemic)
50

Need inhibition in vivo at 4 mg/kg, item CC(C)NCC(O)c1sccc1Cl (racemic)
0

# lookup: inhibition in vivo at 4 mg/kg of CC(C)(C)NCC(O)c1sccc1Br (racemic)
12.5

What measured inhibition in vivo at 4 mg/kg goes with CC(C)NCC(O)c1cc(Cl)cs1 (racemic) ?
86

Item CC(C)(C)NCC(O)c1cc(Cl)cs1 (racemic) has what recorded inhibition in vivo at 4 mg/kg?
53

Would you kindly share the measured inhibition in vivo at 4 mg/kg for CC(C)(C)NCC(O)c1sccc1Cl (racemic) ?
0

Name the reported inhibition in vivo at 4 mg/kg value associated with the compound CC(C)NCC(O)c1scc(Br)c1Br.Cl (racemic)
92

Record request: inhibition in vivo at 4 mg/kg value, item CC(C)NCC(O)c1sc(Br)cc1Br (racemic)
77.5
